Target: Toll-like receptor 8 (Homo sapiens, UniProt Q9NR97)
Sequence (Q9NR97 whole entry): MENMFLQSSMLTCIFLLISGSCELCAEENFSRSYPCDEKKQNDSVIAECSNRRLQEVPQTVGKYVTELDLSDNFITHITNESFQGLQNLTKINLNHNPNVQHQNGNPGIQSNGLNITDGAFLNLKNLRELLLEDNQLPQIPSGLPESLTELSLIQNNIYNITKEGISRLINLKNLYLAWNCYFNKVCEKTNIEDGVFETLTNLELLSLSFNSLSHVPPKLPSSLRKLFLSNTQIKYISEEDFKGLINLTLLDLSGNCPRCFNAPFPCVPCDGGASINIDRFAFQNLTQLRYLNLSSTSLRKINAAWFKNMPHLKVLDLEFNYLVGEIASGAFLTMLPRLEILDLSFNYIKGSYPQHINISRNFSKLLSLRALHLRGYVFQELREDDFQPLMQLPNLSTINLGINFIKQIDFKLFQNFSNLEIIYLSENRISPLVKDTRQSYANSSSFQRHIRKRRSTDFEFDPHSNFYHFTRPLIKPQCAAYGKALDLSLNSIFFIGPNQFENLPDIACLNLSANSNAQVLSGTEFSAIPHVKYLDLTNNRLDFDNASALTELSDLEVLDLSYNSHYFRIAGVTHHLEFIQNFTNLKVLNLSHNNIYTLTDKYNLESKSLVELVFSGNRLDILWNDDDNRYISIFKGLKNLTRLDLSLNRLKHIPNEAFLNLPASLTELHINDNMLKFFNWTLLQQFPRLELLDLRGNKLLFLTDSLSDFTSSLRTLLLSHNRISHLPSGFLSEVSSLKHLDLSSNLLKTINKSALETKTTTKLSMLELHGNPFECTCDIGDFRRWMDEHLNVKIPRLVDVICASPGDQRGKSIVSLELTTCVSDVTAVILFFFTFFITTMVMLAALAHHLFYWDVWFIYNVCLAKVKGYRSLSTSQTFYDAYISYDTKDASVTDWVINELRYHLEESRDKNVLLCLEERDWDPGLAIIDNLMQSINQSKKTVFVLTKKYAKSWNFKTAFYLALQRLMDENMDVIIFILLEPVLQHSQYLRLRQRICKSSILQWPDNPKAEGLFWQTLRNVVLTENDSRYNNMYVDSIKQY
Assay: Antagonist activity at human TLR8 expressed in HEK-Blue cells assessed as inhibition of CL075-induced NF-kappaB activation incubated for 1 hr followed by CL075-stimulation and measured after 24 hrs by quanti-blue SEAP assay
pIC50: −log10 of the molar value.
QUANTITY NAME: pIC50

>  <CHEMICAL STRUCTURE>
FC(F)(F)c1cc(-c2ccccc2)nc(NCc2cccs2)n1

>  <SYSTEM NAME>
Toll-like receptor 8 (Homo sapiens, UniProt Q9NR97)

>  <MEASURED>
4.70

$$$$
>  <CHEMICAL STRUCTURE>
CCCCNc1nc(-c2cccs2)cc(C(F)(F)F)n1

>  <SYSTEM NAME>
Toll-like receptor 8 (Homo sapiens, UniProt Q9NR97)

>  <MEASURED>
4.45

$$$$
>  <CHEMICAL STRUCTURE>
FC(F)(F)c1cc(-c2ccco2)nc(NCc2cccs2)n1

>  <SYSTEM NAME>
Toll-like receptor 8 (Homo sapiens, UniProt Q9NR97)

>  <MEASURED>
5.04

$$$$

Values were extracted from ChEMBL document CHEMBL4304775.
